Measured IC50, listed per entry for reference.
- test.target: human LSD1 (Homo sapiens (Human), UniProt O60341)
- experiment.summary: Experiment 1B: in vitro LSD1 enzyme activity, enzyme-coupled fluorescence (HRP/Amplex Red), H3(1-21)K4me2 peptide 10 μM (Reaction Biology)
- Format: biochemical
- recorded.conditions: histone H3(1-21)K4me2 peptide 10 μM
Counter-ions that a name gives are not always drawn.
quantity.name: IC50 (nM)

* N#Cc1ccc(-c2cc(C(=O)N3CCC[C@@H](N)C3)sc2-c2ccc(N)nc2)cc1F [Hydrochloride of compound 49] | 101
* N#Cc1ccc(-c2cc(C(=O)N3CCCNCC3)sc2-c2ccc(N3CC[C@H](O)C3)cc2)cc1F [Hydrochloride of compound 116] | 9.27
* N#Cc1ccc(-c2cc(C(=O)N3CCC[C@@H](N)C3)sc2-c2ccc(OCC(O)CO)c(F)c2)cc1F (stereo partly drawn) [Hydrochloride of compound 54] | 49.9

====

Measured IC50, listed per entry for reference.
- test.target: human LSD1 (Homo sapiens (Human))
- experiment.summary: Experiment 1B: in vitro LSD1 enzyme activity, enzyme-coupled fluorescence (HRP/Amplex Red), H3(1-21)K4me2 peptide 10 μM (Reaction Biology)
- Assay type: biochemical
- recorded.conditions: histone H3(1-21)K4me2 peptide 10 μM
Counter-ions that a name gives are not always drawn.
quantity.name: IC50 (µM)

* Cn1cc(-c2sc(C(=O)N3CCC[C@@H](N)C3)cc2-c2ccc(C#N)c(F)c2)cn1 [Hydrochloride of compound 52] | 0.251
* N#Cc1ccc(-c2cc(C(=O)N3CCC[C@@H](N)C3)sc2-c2ccc3nn(C4CCOC4)cc3c2)cc1F (stereo partly shown) [Hydrochloride of compound 72] | 0.00856
* COc1ccc(-c2sc(C(=O)N[C@@H]3CCNC3)cc2-c2ccc(C#N)c(F)c2)cc1F [Hydrochloride of compound 27] | 0.0482
* Cn1nc2ccc(-c3sc(C(=O)N4CCC[C@@H](N)C4)cc3-c3ccc(C#N)c(F)c3)cc2c1F [Hydrochloride of compound 123] | 0.0267
* N#Cc1ccc(-c2cc(C(=O)N3CCC[C@@H](N)C3)sc2-c2ccc3nn(C4CC(O)C4)cc3c2)cc1F (stereo partly shown) [Hydrochloride of compound 73] | 0.0118
* N#Cc1ccc(-c2cc(C(=O)N3CCC[C@@H](N)C3)sc2-c2cc3cn(CC4(O)CCC4)nc3cc2F)cc1F [Hydrochloride of compound 95] | 0.0101
* COc1ccc(-c2sc(C(=O)N3CCCNCC3C)cc2-c2ccc(C#N)c(F)c2)cc1F (stereo not shown) [Hydrochloride of compound 25] | 0.0639
* N#Cc1ccc(-c2cc(C(=O)N3CCC[C@@H](N)C3)sc2-c2ccc(N3CC[C@@H](O)C3)cc2F)cc1F [Hydrochloride of compound 112] | 0.00584
* Cn1cc2cc(-c3sc(C(=O)N4CCC[C@@H](N)C4)cc3-c3ccc(C#N)c(F)c3)ccc2n1 [Hydrochloride of compound 36] | 0.00344
* COc1ccc(-c2sc(C(=O)N3CC[C@H](F)[C@@H](N)C3)cc2-c2ccc(C#N)c(F)c2)cc1F [Hydrochloride of compound 19] | 0.0648
* CC(C)(CO)n1nnc2cc(-c3sc(C(=O)N4CCC[C@@H](N)C4)cc3-c3ccc(C#N)c(F)c3)c(F)c(F)c21 [Hydrochloride of compound 99] | 0.0174
* CC(C)(O)Cn1nnc2cc(-c3sc(C(=O)N4C5CCC4C(N)C5)cc3-c3ccc(C#N)c(F)c3)ccc21 (stereo not shown) [Hydrochloride of compound 16] | 0.00751
* N#Cc1ccc(-c2cc(C(=O)N3CCC[C@@H](N)C3)sc2-c2ccc3nn(C4CCOCC4)cc3c2)cc1F [Hydrochloride of compound 64] | 0.0296
* COc1ccc(-c2sc(C(=O)N3CCC(N(C)C)C3)cc2-c2ccc(C#N)c(F)c2)cc1F (stereo not shown) [Hydrochloride of compound 24] | 0.0709
* N#Cc1ccc(-c2cc(C(=O)N3CCC[C@@H](N)C3)sc2-c2ccc(N3CC[C@H](O)C3)c(F)c2)cc1F [Hydrochloride of compound 96] | 0.0206
* COc1ccc(-c2sc(C(=O)N3CCC4(CC3)COCC4N)cc2-c2ccc(C#N)c(F)c2)cc1F (stereo not shown) [Hydrochloride of compound 23] | 0.0768
* CN[C@@H]1CCCN(C(=O)c2cc(-c3ccc(C#N)c(F)c3)c(-c3ccc(N4CC(C)(O)C4)cc3)s2)C1 | 0.0131
* N#Cc1ccc(-c2cc(C(=O)N3CCC[C@@H](N)C3)sc2-c2ccn3nccc3c2)cc1F | 0.0289
* CC(C)(CO)n1cc2cc(-c3sc(C(=O)N4CCC[C@@H](N)C4)cc3-c3ccc(C#N)c(F)c3)ccc2n1 [Hydrochloride of compound 87] | 0.0248

Measured values drawn from patent US20240199571A1 for this set.
